system: DLD1 BRCA2−/− cells; assay: Cell proliferation assay (DLD1 BRCA2−/−); type: cell-based; details: at least 7 days, Cell-Titer Glo, read-out: DLD1 BRCA2−/− anti-proliferation assay
pIC50: −log10 of the molar value.
Assign class by pIC50: not lower than 8 means Fulfilled; lower than 8 means Not fulfilled.

Ask: Is the recorded value of pIC50 equal to or greater than 8 for this compound? CCC1Oc2ncc(CN3C[C@H]4CN(c5ccc(C(=O)NC)nc5)C[C@@H]4C3)cc2NC1=O (mixture of isomers) [Compound 14]
Result: Fulfilled

Ask: CCc1cc2ncc(CN3C[C@H]4CN(c5ccc(C(=O)NC)nc5F)C[C@@H]4C3)cc2[nH]c1=O [Compound 28] ?
Result: Fulfilled

Ask: Check CCc1cc2ncc(CN3C[C@H]4CN(c5ccc(C(=O)NC)nc5)C[C@@H]4C3)cc2[nH]c1=O (racemic) too.
Result: Fulfilled

Ask: Now try CCC1Oc2ncc(CN3C[C@H]4CN(c5ccc(C(=O)NC)nc5)C[C@@H]4C3)cc2NC1=O (mixture of isomers) [Compound 5] .
Result: Not fulfilled

Ask: Query CCc1cc2ncc(CN3C[C@H]4CN(c5ccc(C(=O)NC)nc5F)C[C@@H]4C3)cc2[nH]c1=O (racemic) [Compound 19] next
Result: Fulfilled

* * *

assay: Tumor/plasma ratio study in MDA-MB-436 tumor-bearing mouse; type: in vivo; conditions: plasma, female NOD-SCID mice with MDA-MB-436 tumors, dosed 28 days, sample 24 hours after the last dose, LC-MS/MS, read-out: Plasma
assay_endpoint: concentration at 24 h
# include the unit after the value

Ask: Given O=C(NC1COC1)c1ccc(N2C[C@H]3CN(Cc4ccc5c6c(c(=O)[nH]c5c4)CCC6)C[C@@H]3C2)c(F)n1 , state its recorded concentration at 24 h.
Result: 22 ng/mL

Ask: Another compound: CO[C@H]1C[C@@H](NC(=O)c2ccc(N3C[C@H]4CN(Cc5cnc6c7c(c(=O)[nH]c6c5)COCC7)C[C@@H]4C3)c(F)n2)C1
Result: 3.2 ng/mL

Ask: One more compound: CCc1cc2ncc(CN3CCN(c4ccc(C(=O)NC)nc4)CC3)cc2[nH]c1=O [AZD5305, reference compound]
Result: 584 ng/mL

Ask: Same read-out for O=C(NC1COC1)c1ccc(N2C[C@H]3CN(Cc4cnc5c6c(c(=O)[nH]c5c4)CCC6)C[C@@H]3C2)c(F)n1 ?
Result: 4.3 ng/mL

* * *

Entries below carry reported pIC50 on PARP1 (Homo sapiens, UniProt P09874).
Sequence (P09874 whole entry): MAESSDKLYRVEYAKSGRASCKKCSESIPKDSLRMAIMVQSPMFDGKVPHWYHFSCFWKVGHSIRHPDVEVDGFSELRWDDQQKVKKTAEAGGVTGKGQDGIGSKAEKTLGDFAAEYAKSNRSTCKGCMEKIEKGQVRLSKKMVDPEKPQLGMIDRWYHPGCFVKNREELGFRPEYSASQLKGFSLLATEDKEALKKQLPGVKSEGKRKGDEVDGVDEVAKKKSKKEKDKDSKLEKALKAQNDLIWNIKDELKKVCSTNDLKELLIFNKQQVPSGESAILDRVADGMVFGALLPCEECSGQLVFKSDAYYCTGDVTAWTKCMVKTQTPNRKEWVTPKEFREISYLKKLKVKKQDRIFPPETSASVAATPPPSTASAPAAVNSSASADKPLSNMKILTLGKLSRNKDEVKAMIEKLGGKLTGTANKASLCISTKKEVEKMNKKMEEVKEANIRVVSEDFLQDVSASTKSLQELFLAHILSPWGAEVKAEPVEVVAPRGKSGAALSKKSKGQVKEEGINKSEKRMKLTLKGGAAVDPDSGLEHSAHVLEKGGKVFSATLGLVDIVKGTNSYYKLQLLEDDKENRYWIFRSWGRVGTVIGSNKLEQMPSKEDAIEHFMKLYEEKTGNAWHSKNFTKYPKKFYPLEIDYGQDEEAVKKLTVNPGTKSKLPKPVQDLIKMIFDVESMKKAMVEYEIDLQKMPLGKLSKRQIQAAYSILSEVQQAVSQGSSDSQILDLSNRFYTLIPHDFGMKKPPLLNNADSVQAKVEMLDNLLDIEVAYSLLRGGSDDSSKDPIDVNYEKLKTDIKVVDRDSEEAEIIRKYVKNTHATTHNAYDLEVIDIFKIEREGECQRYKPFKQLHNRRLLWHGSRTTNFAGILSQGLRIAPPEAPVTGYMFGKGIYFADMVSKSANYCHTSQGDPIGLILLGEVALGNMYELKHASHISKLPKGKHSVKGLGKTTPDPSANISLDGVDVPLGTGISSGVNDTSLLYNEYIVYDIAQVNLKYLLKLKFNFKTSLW
Reminder that pIC50 is minus the log10 of a molar concentration.

Ask: Form entry - test system: PARP1 (Homo sapiens, UniProt P09874); read-out: pIC50; compound: CCc1cc2ncc(CN3C[C@@H]4CN(c5ccc(C(=O)NC)nc5)C[C@H]4C3)cc2[nH]c1=O [Compound 15]
Result: 8.20

Ask: // repeat for CNC(=O)c1ccc(N2C[C@@H]3CN(Cc4ccc5c(c4)[nH]c(=O)n4ccnc54)C[C@H]3C2)cn1 (racemic) [Compound 13] and report
Result: 7.33

Ask: Request: CNC(=O)c1ccc(N2C[C@H]3CN(Cc4ccc5c6c(c(=O)[nH]c5c4)COC6)C[C@@H]3C2)c(F)n1 [Compound 60]
Result: 8.09

* * *

experiment: Tumor/plasma ratio study in MDA-MB-436 tumor-bearing mouse; type: in vivo; conditions: tumor/plasma, female NOD-SCID mice with MDA-MB-436 tumors, dosed 28 days, 24 hours after the last dose
assay_endpoint: Kp at 24 h
Please reply with the number alone, leaving off any unit.

Ask: Form field: reported Kp at 24 h of CO[C@H]1C[C@@H](NC(=O)c2ccc(N3C[C@H]4CN(Cc5cnc6c7c(c(=O)[nH]c6c5)COCC7)C[C@@H]4C3)c(F)n2)C1
Result: 64

Ask: Try this molecule too: O=C(NC1COC1)c1ccc(N2C[C@H]3CN(Cc4cnc5c6c(c(=O)[nH]c5c4)CCC6)C[C@@H]3C2)c(F)n1
Result: 28

Ask: O=C(NC1COC1)c1ccc(N2C[C@H]3CN(Cc4ccc5c6c(c(=O)[nH]c5c4)CCC6)C[C@@H]3C2)c(F)n1 , same question.
Result: 11

Ask: Now give it for CCc1cc2ncc(CN3CCN(c4ccc(C(=O)NC)nc4)CC3)cc2[nH]c1=O [AZD5305, reference compound] too.
Result: 0.4
